Experiment: protein stability index of a GFP-peptide fusion (yeast GPS) (PSI 1-4); higher = more stable; sorted into four equal gates, so the index is relative within each strain
Conditions: ubr1∆
Label scheme for protein stability index: lower than 3 is N, 3 and above is Y.

Worked examples follow.
SLENNIREFPEYFAAQA [RPL10]; N
DAIIPFAAIPEQGIELE [FAS2]; Y
MTAMRLMLKKLKNSIMS [YML031W/NDC1]; N
GKEVEVLMETKNTQSPQ [SNU114]; Y
NSNGIAMASLYLTGGQQ [SMD1]; N
NLMILNTKVPVDIVNQW [YML103C/NUP188]; N

Textbook exercise: given the entry KFPPPTPLLENISISTS [BRR2] , state whether its protein stability index is greater than or equal to 3.
N

Check this sequence for protein stability index at or above 3: ILNEVFTNPSIVKVFHG [RRP6]
N

Confirm if protein stability index reported for the sequence TLLYEQIIQRDKINKYS [SNF5] is 3 or above.
N

Form field: protein stability index at least 3? Entry: LLEKYNTNELKEVSSFL [MTR3]
Y

Threshold query (protein stability index >= 3) on EVRGQVPVIESAGFETD [SNU114]
N

Does protein stability index meet or surpass 3 for ASVVPSASSLVITALKE [RPL12A] ?
N

Does the sequence QLVTREAQIKDWVENEL [FAS2] have recorded protein stability index that is 3 or more?
Y

Hi team, for NLQREIDQAHVSEITKL [RPN14] , is the recorded protein stability index at or above 3?
N

# bool: protein stability index of NTLLVTGPFKVNGVPLR [RPL6B] >= 3
N

I'd appreciate it if you could say whether DEVTIRRTVGLKKDDYQ [SMC3] has protein stability index at least equal to 3.
N

Decide: is the reported value of protein stability index for LLTEELAKSGSTEETTA [TAF14] equal to or greater than 3?
N

Determine whether measured protein stability index meets or exceeds 3 for ETQVEVEKNEIGKMYDE [NNF1]
Y

Tell me whether protein stability index is at least 3 here: PQEETITFLIEKAKEMI [ECM29]
Y
